I'd be grateful if you could share measured inhibition for these entries.
MEASUREMENT_TARGET: Aminopeptidase N (Plasmodium falciparum (isolate 3D7)) (UniProt O96935)
Sequence (O96935 whole entry, looked up): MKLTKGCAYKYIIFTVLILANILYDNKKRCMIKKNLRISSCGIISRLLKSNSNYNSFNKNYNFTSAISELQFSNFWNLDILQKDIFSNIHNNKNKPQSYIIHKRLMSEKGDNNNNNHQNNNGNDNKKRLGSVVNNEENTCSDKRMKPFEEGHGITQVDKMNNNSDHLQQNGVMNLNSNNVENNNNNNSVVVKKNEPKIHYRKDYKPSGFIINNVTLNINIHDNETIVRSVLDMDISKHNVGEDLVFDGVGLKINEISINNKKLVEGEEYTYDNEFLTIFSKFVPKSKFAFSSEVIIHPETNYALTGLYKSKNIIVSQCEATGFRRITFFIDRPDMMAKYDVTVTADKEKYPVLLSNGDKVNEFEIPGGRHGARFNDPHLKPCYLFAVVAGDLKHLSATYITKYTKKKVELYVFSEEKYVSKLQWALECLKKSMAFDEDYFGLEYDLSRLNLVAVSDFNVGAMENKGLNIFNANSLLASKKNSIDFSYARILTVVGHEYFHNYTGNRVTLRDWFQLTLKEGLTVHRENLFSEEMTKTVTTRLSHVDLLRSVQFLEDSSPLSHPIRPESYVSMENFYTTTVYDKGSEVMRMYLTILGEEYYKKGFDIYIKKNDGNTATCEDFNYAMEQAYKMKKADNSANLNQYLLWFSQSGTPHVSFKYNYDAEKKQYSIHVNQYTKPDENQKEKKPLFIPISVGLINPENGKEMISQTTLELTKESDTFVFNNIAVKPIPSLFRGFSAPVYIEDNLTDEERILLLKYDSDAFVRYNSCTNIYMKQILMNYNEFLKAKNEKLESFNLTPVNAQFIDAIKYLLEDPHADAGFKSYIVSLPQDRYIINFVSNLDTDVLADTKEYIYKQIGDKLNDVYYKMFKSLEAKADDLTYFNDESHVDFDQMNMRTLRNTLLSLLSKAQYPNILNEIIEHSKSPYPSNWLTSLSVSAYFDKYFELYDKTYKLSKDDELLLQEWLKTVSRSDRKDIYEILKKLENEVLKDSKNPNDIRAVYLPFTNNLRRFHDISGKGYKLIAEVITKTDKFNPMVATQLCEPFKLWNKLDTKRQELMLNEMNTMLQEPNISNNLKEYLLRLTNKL
EXPERIMENT_DESCRIPTION: malaria alanyl aminopeptidase activity blockers – biochemical, fluorogenic H-Leu-NHMec substrate, 1536-well (AID 1445);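 also: plate controls were DMSO full reaction for no effect and no enzyme background for full effect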
STATED_CONDITIONS: recombinant M1AAP, H-Leu-NHMec fluorogenic kinetic assay; at 30 µM, hits give high values unless noted
The whole screen tested about 220,000 compounds, of which about 910 (0.41%) were called active. This excerpt belongs to a sample that is enriched for actives. Potency and affinity values are given separately.

Record summary for N=C(N)N=Nc1c(O)[nH]c2ccc(Br)cc12 : reported inhibition = 10.3% (inactive)

Record summary for Oc1[nH]c2ccc(Br)cc2c1N=Nc1ccc(C(F)(F)F)cn1 : reported inhibition = 4.3% (inactive)

Record summary for CC(=O)N1CCc2cc(S(=O)(=O)CCC(=O)Nc3ccc4c(c3)OCCO4)ccc21 : reported inhibition = 7.36% (inactive)

Record summary for COCc1cc(C)nc(OCC(=O)N/N=C/c2ccc(O)cc2O)c1C#N : reported inhibition = -7.94% (inactive)

Record summary for Cc1ccc(C2Nc3ccc4ccccc4c3C3=C2C(=O)CC(C)(C)C3)o1 (stereo not given) : reported inhibition = 16% (inactive)

* * *

MEASUREMENT_TARGET: Aminopeptidase N (Plasmodium falciparum (isolate 3D7)) (UniProt O96935)
EXPERIMENT_DESCRIPTION: malaria alanyl aminopeptidase activity blockers – biochemical, fluorogenic H-Leu-NHMec substrate, 1536-well (AID 1445);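 also: plate controls were DMSO full reaction for no effect and no enzyme background for full effect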
STATED_CONDITIONS: recombinant M1AAP, H-Leu-NHMec fluorogenic kinetic assay; at 30 µM, hits give high values unless noted
Out of some 220,000 compounds screened, about 910 (0.41%) were called active. The list comes from a sample in which actives are over-represented; it also holds close analogues and randomly drawn compounds. Potency and affinity values are given separately.
QUANTITY_KIND: inhibition (%)
Kindly answer with a numeric value in %, unit omitted.

Record summary for Cc1ccccc1OCC(=O)NNC(=O)Nc1ccccc1 : reported inhibition = 11.5

Record summary for C/C(Cn1cnc([N+](=O)[O-])n1)=N\NC(=O)c1ccccc1 : reported inhibition = 15.8

Record summary for Cc1ccc(NC(=O)Nc2ccc(F)cc2F)c(OC(F)F)c1 : reported inhibition = -3.74

Record summary for COc1ccccc1/C=N/NC(=O)c1cccc(NC(=O)c2ccccc2Cl)c1 : reported inhibition = 6.04

Record summary for CC(=O)N1CCN(c2ccc(NC(=O)C(C)Oc3ccc(Cl)cc3Cl)cc2)CC1 (stereo not drawn) : reported inhibition = 4.51

Record summary for COc1cc(N2CN=c3s/c(=C\c4ccccn4)c(=O)n3C2)cc(OC)c1OC : reported inhibition = 5.01

Record summary for COc1cc(/C=N/NC(=O)c2cccnc2)ccc1OCC(=O)Nc1c(C)cc(C)cc1C : reported inhibition = 5.36

Record summary for COc1cc(/C=N/NC(=O)c2cccc(NC(=O)c3ccccc3Cl)c2)ccc1O : reported inhibition = 21.6

* * *

MEASUREMENT_TARGET: Aminopeptidase N (Plasmodium falciparum (isolate 3D7))
EXPERIMENT_DESCRIPTION: malaria alanyl aminopeptidase activity blockers – biochemical, fluorogenic H-Leu-NHMec substrate, 1536-well (AID 1445);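 also: plate controls were DMSO full reaction for no effect and no enzyme background for full effect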
STATED_CONDITIONS: recombinant M1AAP, H-Leu-NHMec fluorogenic kinetic assay; at 30 µM
In all, about 220,000 compounds went through this assay and about 910 (0.41%) were called active.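 Rule for the calls: active = primary inhibition above the hit cutoff, then over 50% inhibition at one or more dose response concentrations (cut at about 23% in these data, passing the limit was not always enough); inconclusive = conflicting primary data, or primary hits not chosen for dose response; inactive = low primary inhibition, or under 50% at every dose.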 This is one part of a sample in which actives are shown more often than they occur. Potency and affinity values are given separately.
// one of Yes (active), No (inactive), no free text

Recorded test call requested for O=C(CNC(=O)c1ccc(F)cc1)Nc1ccccc1C(F)(F)F
No

Recorded test call requested for Cc1ccc(-c2ccc(=O)n(CC(=O)Nc3cccc(C(=O)N4CCN(C)CC4)c3)n2)cc1
No

Recorded test call requested for C=CCOC(=O)c1[nH]c2c(c1C)C(=O)CC(c1ccco1)C2 (configuration not stated)
No

Recorded test call requested for CCOC(=O)CSc1nnc(CNC(=O)c2cccs2)n1CCc1ccccc1
No

Recorded test call requested for COc1ccc2cc3cc(C(=O)NCC4COc5ccccc5O4)oc3nc2c1 (configuration not stated)
No

Recorded test call requested for Cn1c(=O)n(-c2cccc(Cl)c2)c(=O)n1C
No

Recorded test call requested for CCn1c(SCC(=O)NCCc2ccccc2)nnc1-c1cccs1
No

Recorded test call requested for CC1Cc2cc(/C(O)=C3\C(=O)C(=O)N(CCN(C)C)C3c3ccccc3F)ccc2O1 (configuration not stated)
No

Recorded test call requested for CCn1c(CCNC(=O)c2cccs2)nnc1SCC(=O)Nc1ccc(Cl)cc1
No

Recorded test call requested for Cn1c(-c2ccc[nH]c2=O)nc2cc(Cl)ccc21
No

Recorded test call requested for N#CC1=C(N)C2=C(N3CCCCC3)CCCC2C1(C#N)C#N (configuration not stated)
Yes

Recorded test call requested for COc1ccc(-c2[nH]c(-c3ccccc3)nc2SCC(=O)NCc2ccco2)cc1OC
No

Recorded test call requested for COc1ccc(-n2c(SCC(=O)NCc3ccco3)nnc2-c2c[nH]c3ccccc23)cc1
No

Recorded test call requested for COc1ccc(-c2nc(SCC(=O)NCc3ccco3)c(-c3ccccc3)[nH]2)cc1OC
No

Recorded test call requested for COc1ccc(OC)c(-n2c(SCC(=O)NCc3ccco3)nnc2-c2c[nH]c3ccccc23)c1
Yes

Recorded test call requested for O=C1CC(c2ccccc2)Cc2nc3nc(C(F)(F)F)nn3cc21 (configuration not stated)
No

Recorded test call requested for Cc1ccc(CNC(=O)C(Cc2ccccc2)NS(=O)(=O)c2cccs2)cc1 (configuration not stated)
No

Recorded test call requested for COc1ccc(NC(=O)c2ccccc2F)cc1Cl
No

Recorded test call requested for CCCn1c(-c2ccc[nH]c2=O)nc2ccccc21
No

Recorded test call requested for COC(=O)/C=C/c1ccsc1NC(C)=O
No

Recorded test call requested for CC(C)CNC(=O)C(=O)NN=C1CCCCCC1
No

Recorded test call requested for CC(=O)NNC(=O)c1sc(=S)n(C)c1C
No

Recorded test call requested for COc1ccc2cc3cc(C(=O)NCCN4CCN(c5ccccc5F)CC4)oc3nc2c1
No

Recorded test call requested for CCOc1cc(N2CCOCC2)c(OCC)cc1NC(=O)c1ccc(S(C)(=O)=O)cc1
No

Recorded test call requested for Cn1c(Sc2ccccc2Cl)c(C=O)c2ccccc21
No

Recorded test call requested for COc1ccc(/C=C2/C(=N)N3C(=NC2=O)Sc2cc(S(C)(=O)=O)ccc23)cc1OC
No

Recorded test call requested for CC(=O)Nc1ccccc1-c1nc2ccc(C(=O)N3CCN(c4cccc(C)c4)C(C)C3)cc2[nH]c1=O (configuration not stated)
No

Recorded test call requested for S=c1nc(-c2csc3c2CCCC3)[nH][nH]1
No

Recorded test call requested for O=C(NC1CCCC1)C1CCC(=O)N1C1CCCC1 (configuration not stated)
No

Recorded test call requested for CC(=O)Nc1ccccc1-c1nc2ccc(C(=O)N3CCN(c4cc(C)ccc4C)CC3)cc2[nH]c1=O
No

Recorded test call requested for Cc1cc2c(cc1C)NC(c1ccccn1)C1=C(CC(C)(C)CC1=O)N2 (configuration not stated)
Yes

Recorded test call requested for CC(=O)c1sc2nc(C)cc(C)c2c1N
No

Recorded test call requested for O=[N+]([O-])c1cc(Cl)ccc1-c1nc(-c2ccncc2)no1
No

Recorded test call requested for COc1ccc(-c2[nH]c(-c3cccc(OC)c3)nc2SCC(=O)NCc2ccco2)cc1
Yes

Recorded test call requested for O=C(Nc1cc(S(=O)(=O)Nc2ccc(Cl)cc2)ccc1O)c1ccc(S(=O)(=O)N2CCCCCC2)cc1
No

Recorded test call requested for Cc1ccc(NC(=O)c2ccccc2NS(=O)(=O)c2ccc(F)cc2)cc1S(=O)(=O)N1CCCCC1
No

Recorded test call requested for CCOC(=O)c1cc2sccc2n1CC(=O)OC
No

Recorded test call requested for COc1ccc2cc3cc(C(=O)NC(C)C)oc3nc2c1
No

Recorded test call requested for CCOC(=O)C1CCN(C(=O)COc2ccc(N(C)S(=O)(=O)c3ccc(OCC)cc3)cc2)CC1
No

Recorded test call requested for CC1=CSC2=NC(=O)/C(=C/c3cccc(OC(=O)c4ccco4)c3)C(=N)N12
No

Recorded test call requested for CCC1CCCCN1CCCNC(=O)CC1Oc2ccccc2NC1=O (configuration not stated)
No

Recorded test call requested for Cc1ccc(CNC(=O)c2ccc3c(=O)[nH]c4c(C(=O)NCC5CCCO5)sc(=S)n4c3c2)cc1 (configuration not stated)
No

* * *

MEASUREMENT_TARGET: Aminopeptidase N (Plasmodium falciparum (isolate 3D7))
EXPERIMENT_DESCRIPTION: malaria alanyl aminopeptidase activity blockers – biochemical, fluorogenic H-Leu-NHMec substrate, 1536-well (AID 1445);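 also: plate controls were DMSO full reaction for no effect and no enzyme background for full effect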
STATED_CONDITIONS: recombinant M1AAP, H-Leu-NHMec fluorogenic kinetic assay; at 30 µM
Out of some 220,000 compounds screened, about 910 (0.41%) were called active.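 Rule for the calls: active = primary inhibition above the hit cutoff, then over 50% inhibition at one or more dose response concentrations (cut at about 23% in these data, passing the limit was not always enough); inconclusive = conflicting primary data, or primary hits not chosen for dose response; inactive = low primary inhibition, or under 50% at every dose.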 The entries come from a sample that favours actives as a whole. Potency and affinity values are given separately.
// one of Yes = active, No = inactive, no free text

Recorded test call requested for CCc1cccc(CC)c1NC(=O)COC(=O)c1ccc(F)c(S(=O)(=O)N(CC)CC)c1
No

Recorded test call requested for O=C(C(=O)N1CCCc2ccccc21)c1cn(CC(=O)N2CCOCC2)c2ccccc12
No

Recorded test call requested for O=C(c1c(Cl)cccc1Cl)N1CCCCCC1
No

Recorded test call requested for O=C(N/N=C/c1cc(Cl)cc(Cl)c1O)c1ccncc1
No

Recorded test call requested for CCOC(=O)CC(NC(=O)c1ccc(C)cc1)c1ccc(OC)cc1 (stereo unspecified)
No

Recorded test call requested for CC1=CC2=NC(=O)/C(=C\c3cccn3CCOc3cc(C)cc(C)c3)C(=N)N2O1
No

Recorded test call requested for Nc1ccc2nc(-c3ccccc3)[nH]c2c1
No

Recorded test call requested for COC(=O)c1cc(=O)n(Cc2ccc3c(c2)OCO3)c(=Nc2ccccc2)s1
Yes

Recorded test call requested for COC(=O)c1cc(=O)n(Cc2ccc3c(c2)OCO3)c(=Nc2ccc(F)cc2)s1
No

Recorded test call requested for COc1cccc2c1OC1(C)CC2NC(=O)N1Cc1ccccc1 (stereo unspecified)
No

Recorded test call requested for c1ccc(-c2nc(NCc3ccco3)c3oc4ccccc4c3n2)cc1
No

Recorded test call requested for Cn1cc(/C=N/NC(=O)c2cc3cc(Br)ccc3o2)c2ccccc21
No

Recorded test call requested for O=C(COC(=O)/C=C/c1ccc(S(=O)(=O)N2CCOCC2)cc1)NCc1ccccc1
No

Recorded test call requested for CCOC(=O)c1c(NC(=O)CSc2nnc(-c3ccccc3)n2CC)sc(C(C)=O)c1C
No

Recorded test call requested for COc1ccc(Br)cc1/C=N/NC(=O)C(c1ccncc1)N1CCOCC1 (stereo unspecified)
No

Recorded test call requested for COc1cc(/C=C2\OC(=O)c3c(OC)cccc32)ccc1O
No

Recorded test call requested for Cc1[nH]nc2c1C(c1ccc(-c3ccccc3C#N)o1)C(C#N)=C(N)O2 (stereo unspecified)
Yes

Recorded test call requested for CC(C)C(=O)Nc1cccc(-c2nc3ccccc3o2)c1
No

Recorded test call requested for Cc1[nH]nc2c1C(c1ccc(-c3ccc(Cl)cc3)o1)C(C#N)=C(N)O2 (stereo unspecified)
No

Recorded test call requested for Cc1nnc(SCC(=O)Nc2cccc(C(F)(F)F)c2)[nH]c1=O
No

Recorded test call requested for O=C(CNC(=O)c1ccccc1Br)N/N=C/c1ccccc1O
No

Recorded test call requested for O=C1NCCCc2nonc21
No

Recorded test call requested for NS(=O)(=O)c1ccc(NC(=O)COC(=O)CCNC(=O)NC23CC4CC(CC(C4)C2)C3)cc1
No

Recorded test call requested for Cc1ccc(NC(=O)CC2NCCN(Cc3ccccc3)C2=O)cc1 (stereo unspecified)
No

Recorded test call requested for Cc1ccc(/C=N/NC(=O)C(c2ccncc2)N2CCOCC2)cc1 (stereo unspecified)
No

Recorded test call requested for Cc1cc(C)cc(OCC(=O)N(Cc2cccs2)C2CCS(=O)(=O)C2)c1 (stereo unspecified)
No

Recorded test call requested for O=C(Nc1cccc(-c2nc3ccccc3o2)c1)c1cccnc1
No

Recorded test call requested for CC(C)S(=O)(=O)C1=NSC2=NC(=O)/C(=C\c3ccc(-c4cccc(C(=O)O)c4)o3)C(=N)N21
No

Recorded test call requested for CC1CCCCN1C(=O)c1cc(-c2ccc(Cl)c(Cl)c2)on1 (stereo unspecified)
No

Recorded test call requested for COc1ccc(OC)c(C(C)NC(=O)c2ccc(Br)cc2)c1 (stereo unspecified)
No

Recorded test call requested for COc1cc(/C=N/n2cnnc2)ccc1OS(=O)(=O)c1ccccc1[N+](=O)[O-]
No

Recorded test call requested for Cc1cc(N2CCN(c3ccccn3)CC2)n2c(nc3ccccc32)c1C#N
No

Recorded test call requested for CS(=O)(=O)N(Cc1ccc(C(=O)NC2CCCCC2O)cc1)c1ccccc1 (stereo unspecified)
No

Recorded test call requested for O=C(CCNC(=O)c1ccccc1Cl)Nc1ccc(S(=O)(=O)Nc2ncccn2)cc1
No

Recorded test call requested for O=C(Nc1ccc2oc(-c3ccccc3)nc2c1)c1ccccc1F
No

Recorded test call requested for COc1cc(CNC(C)(C)C)cc(Br)c1OCc1cccs1
No
